- ASSAYED SYSTEM: ZFP SBS#1315 (synthetic)
- Sequence (chain, as listed by the source): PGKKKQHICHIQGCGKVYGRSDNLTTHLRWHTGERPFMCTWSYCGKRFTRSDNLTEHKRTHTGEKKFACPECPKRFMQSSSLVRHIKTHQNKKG
- MEASUREMENT PROTOCOL: EMSA
- RUN PARAMETERS: tags: MBP fusion
pKd: −log10 of the molar value.
REPORTED PROPERTY: pKd

>  <BINDER>
GTACAGTAG (dsDNA) DNA 1: GTACAGTAG DNA 2: CTACTGTAC

>  <VAL>
8.03

$$$$
